Molecular target: T1, glutathione S-transferase (UniProt P08515 1-218 = GST)
T1 construct: Expressed in E. coli, purified on GSH resin; also called GST
T1 sequence (P08515 whole entry): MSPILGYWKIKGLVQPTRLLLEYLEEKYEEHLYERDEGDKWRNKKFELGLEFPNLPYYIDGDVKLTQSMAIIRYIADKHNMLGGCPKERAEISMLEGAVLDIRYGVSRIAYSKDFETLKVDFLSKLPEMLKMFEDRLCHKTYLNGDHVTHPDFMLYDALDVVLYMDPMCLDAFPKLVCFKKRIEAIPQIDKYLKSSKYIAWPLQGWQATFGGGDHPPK
Experiment: SPR, GST immobilised;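 note: nanobody analytes injected as dilution series over three orders of magnitude across antigen on a CM5 chip, kinetics fitted by 1:1 Langmuir model, optionally with mass transfer, duplicate runs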
Kindly apply the following: Criterion met if Kd is less than 40 nM, Criterion not met in every other case.

Exercise: Bench note: check whether G60 (VHH, also called G60(C1)) VHH: QMGRNSAEVQLVESGGSLRLSCAASGSGFSSSIIAWYRQAPGKQRELVAAIGGPGSTNYADFVEGRFTISRDNAKNTGYLQMNNLNPEDTAVYYCNEVTRSGREYWGQGTQVTVSS shows Kd below 40 nM
Key: Criterion not met

Exercise: hey, is Kd for G17 (VHH) VHH: EVQLVESGGGLVQAGGSLRLSCAASGVTISYWVMGWFRQAPGKEREFVARISWGGERTYYADSVKGRFAISRDNAKNTVYLQMNSLNAEDTAVYYCAADRTGWGHSNSRSEYDYWGQGTQVTVSS lower than 40 nM or not?
Key: Criterion met

Exercise: Hello, is Kd of the following binder strictly smaller than 40 nM? G95 (VHH, also called G95(C2)) VHH: HVQLVESGGGLVQAGGSLRLSCAASGRTFSSYAMAWFRQAVGKEREFVAAVSRSGTNLYYADSVKGRFTISRDTAKNTMYLQMNSLKPEDTALYYCAAGEALRWGIGQQPRSEFFDYWGQGTQVTVSS
Key: Criterion not met

Exercise: For this binder, is Kd lower than 40 nM? G9 (VHH) VHH: DVQLVESGGGLVQPGGSLRLSCAASGLTLDNYDMAWFRQAPGKEREFVTAINYVGGRTYADSVRGRFTISRDDTKNTVYLQMNSLKPEDTAVYYCAAGLQYGITSLRTRNYNYWGQGTQVTVSS
Key: Criterion met
